Target: thrombin (Bos taurus)
Construct: purchased Lubelska Wytwórnia Szczepionek (Lublin, Poland)
Test: Amidolytic activity of thrombin (substrate S-2238)
Type: biochemical
Conditions: amidolytic activity, S-2238, tris buffer pH 8.4
Non-standard residues stand in square brackets, D forms with d. Residues, ends and D or L forms follow the SMILES beside them. Ahx = NCCCCCC(=O)O
Measured IC50 values are reported for all entries that follow.

Ask: Returns the measured IC50 for the input compound. Input: C[C@@H](N)C(=O)N[C@@H](Cc1ccccc1)C(=O)NCCCCCC(N)=O [Compound 9, H–D-Ala–Phe–EACA–NH2] (H-[dA]-Phe-[Ahx]-NH2)
Result: > 20 mM

Ask: Need IC50 of C[C@@H](N)C(=O)N[C@@H](Cc1ccccc1)C(=O)N[C@@H](CCCCN)C(=O)NCCCCCC(=O)O [Compound 2, H–D-Ala–Phe–Lys–EACA–OH] (H-[dA]FK[Ahx]-OH) , thanks.
Result: 3.85 mM

Ask: Value lookup for IC50; key = NCCCC[C@H](NC(=O)[C@@H](N)Cc1ccccc1)C(=O)NCCCCCC(N)=O [Compound 6, H–Phe–Lys–EACA–NH2] (H-Phe-Lys-[Ahx]-NH2)
Result: > 20 mM

Ask: What does the data say about its IC50? Entry: C[C@H](N)C(=O)N[C@@H](Cc1ccccc1)C(=O)N[C@@H](CCCCN)C(=O)NCCCCCC(N)=O [Compound 8, H–Ala–Phe–Lys–EACA–NH2] (H-AFK[Ahx]-NH2)
Result: 7.59 mM

Ask: Returns the measured IC50 for the input compound. Input: C[C@@H](N)C(=O)N[C@@H](Cc1ccccc1)C(=O)NCCCCCC(=O)NCCCCCN
Result: > 20 mM

Ask: Using the record for C[C@H](N)C(=O)N[C@@H](Cc1ccccc1)C(=O)N[C@@H](CCCCN)C(=O)NCCCCCC(=O)NCCCCCN , report its IC50.
Result: > 20 mM

Ask: Requested read-out: IC50. Entry: NCCCC[C@H](NC(=O)[C@@H](N)Cc1ccccc1)C(=O)NCCCCCC(=O)O [Compound 1, H–Phe–Lys–EACA–OH] (H-Phe-Lys-[Ahx]-OH)
Result: > 20 mM

Ask: Fill blank: measured IC50 of the compound C[C@H](N)C(=O)N[C@@H](Cc1ccccc1)C(=O)NCCCCCC(=O)NCCCCCN is ____.
Result: > 20 mM

Ask: Entry C[C@@H](N)C(=O)N[C@@H](Cc1ccccc1)C(=O)N[C@@H](CCCCN)C(=O)NCCCCCC(=O)NCCCCCN has what IC50?
Result: > 20 mM

Ask: # IC50 lookup, item NCCCCCNC(=O)CCCCCNC(=O)[C@H](CCCCN)NC(=O)[C@@H](N)Cc1ccccc1
Result: > 20 mM

Ask: Dear colleague, I am looking for the recorded IC50 of the following compound: C[C@@H](N)C(=O)N[C@@H](Cc1ccccc1)C(=O)N[C@@H](CCCCN)C(=O)NCCCCCC(N)=O [Compound 7, H–D-Ala–Phe–Lys–EACA–NH2] (H-[dA]FK[Ahx]-NH2)
Result: > 20 mM

Ask: Give the measured IC50 of C[C@H](N)C(=O)N[C@@H](Cc1ccccc1)C(=O)N[C@@H](CCCCN)C(=O)NCCCCCC(=O)O [Compound 3, H–Ala–Phe–Lys–EACA–OH] (H-AFK[Ahx]-OH) .
Result: 5.04 mM
